experiment.summary: CCTE_Deisenroth_AIME_384WELL_CTox_Active: Cytotoxicity Assessment (CTOX) in CCTE's 384-well Estrogen Receptor Transactivation Assay with AIME metabolic competence (metabolism positive), Deisenroth Lab (AID 2284037);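 further: chemicals first conditioned 2 h by alginate-bound induced rat liver S9 before cells; activity means signal loss indicating cell death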
Results filed as inconclusive are left out. Calls of active or inactive are those of the source. How the source made its calls: active means hit-call score of the fitted dose curve at least 0.9, where 1 is the maximum; inconclusive means response in the unintended direction; inactive means score below 0.9.
Give your call using only these classes: true (active), false (inactive)

Example entries and their recorded answers appear below.
// query Outcome logged for CCC(C)Nc1c([N+](=O)[O-])cc(C(C)(C)C)cc1[N+](=O)[O-] (stereo not given) in this assay:
// result false

// query Outcome logged for CCc1ccc(C(=O)NN(C(=O)c2cc(C)cc(C)c2)C(C)(C)C)cc1 in this assay:
// result false

// query Outcome logged for OCCOc1ccccc1 in this assay:
// result false

// query Outcome logged for Clc1ccccc1-c1nnc(-c2ccccc2Cl)nn1 in this assay:
// result false

// query Outcome logged for CCOCN(C(=O)CCl)c1c(C)cccc1CC in this assay:
// result false

// query Outcome logged for CCOC1Oc2ccc(OS(C)(=O)=O)cc2C1(C)C (stereo not given) in this assay:
// result true

Others:
// query Outcome logged for CNC(=O)Oc1cccc(N=CN(C)C)c1 in this assay:
// result false

// query Outcome logged for O=S1OCC2C(CO1)C1(Cl)C(Cl)=C(Cl)C2(Cl)C1(Cl)Cl (stereo not given) in this assay:
// result false

// query Outcome logged for CNC(=O)/C=C(\C)OP(=O)(OC)OC in this assay:
// result false

// query Outcome logged for Cc1[nH]c(=O)n(C(C)(C)C)c(=O)c1Cl in this assay:
// result false
